Quick note: these are pKd numbers for system: Heat shock protein HSP 90-alpha (Homo sapiens, UniProt P07900)
Just so you know, pKd here is -log10 of the concentration in molar units; reply with that number alone.

[
  {
    "Test smiles": "C=Cc1ccsc1Cn1ccnc1CCc1c(Cl)c(O)cc(O)c1C(=O)OC",
    "pKd": 4.44
  }
]

(Q) GET pKd | system: Heat shock protein HSP 90-alpha (Homo sapiens, UniProt P07900) | item: COC(=O)c1c(O)cc(O)c(Cl)c1CCc1nccn1Cc1ccccc1F
(A) 4.94

(Q) GET pKd | system: Heat shock protein HSP 90-alpha (Homo sapiens, UniProt P07900) | item: COC(=O)c1c(O)cc(O)c(Cl)c1CCc1nccn1Cc1ccsc1
(A) 5.18

(Q) GET pKd | system: Heat shock protein HSP 90-alpha (Homo sapiens, UniProt P07900) | item: COC(=O)c1c(O)cc(O)c(Cl)c1CCc1nccn1Cc1ccc(C)cc1OC
(A) 4.14
